Molecular target: 5-HT2A receptors (Mus musculus, UniProt P35363)
Sequence (P35363 whole entry): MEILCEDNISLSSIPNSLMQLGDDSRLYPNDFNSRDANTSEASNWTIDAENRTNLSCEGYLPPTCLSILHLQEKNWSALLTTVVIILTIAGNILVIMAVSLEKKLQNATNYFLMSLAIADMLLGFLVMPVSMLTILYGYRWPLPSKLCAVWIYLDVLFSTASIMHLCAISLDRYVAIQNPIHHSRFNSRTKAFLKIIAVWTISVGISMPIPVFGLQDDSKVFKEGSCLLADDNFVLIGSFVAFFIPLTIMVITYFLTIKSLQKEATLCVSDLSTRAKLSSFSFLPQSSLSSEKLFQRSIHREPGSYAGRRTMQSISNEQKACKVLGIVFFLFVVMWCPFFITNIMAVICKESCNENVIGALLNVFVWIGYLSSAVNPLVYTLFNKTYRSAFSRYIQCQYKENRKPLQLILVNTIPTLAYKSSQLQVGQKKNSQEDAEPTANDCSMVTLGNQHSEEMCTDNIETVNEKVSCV
Experiment: LSD-induced head twitch response in mice, 5-HT2A antagonist given i.v. after LSD
Assay type: in vivo, C57BL/6J mice
Set-up: widely used to explore the effect of treatments on 5-HT2A receptors in vivo; from tissue; host or cells: whole living male C57BL/6J mice (behavioural read-out)
Conditions: summary of Examples 1-17; antagonist administered after LSD
test-readout: Result (LSD Combinations tested, summary)

Sample records with Result (LSD Combinations tested, summary):
Cc1nc2sccn2c(=O)c1CCN1CCC(=C(c2ccc(F)cc2)c2ccc(F)cc2)CC1
full suppression
COc1ccc(NC(=O)Nc2ccc(F)cc2F)cc1-c1c(Br)cnn1C
partial suppression
N#Cc1c[nH]c2c(C(=O)N3CCN(CCc4ccc(F)cc4)CC3)cccc12
full suppression
O=c1[nH]c2ccccc2n1CCN1CCN(c2cccc(C(F)(F)F)c2)CC1
partial suppression

Query string: Give its Result (LSD Combinations tested, summary) value. Item: COc1cccc([C@H](O)C2CCN(CCc3ccc(F)cc3)CC2)c1OC
Result string: full suppression
